Test System: UniProt P04925
Experiment Notes: Inhibition of manganese-induced aggregation in mouse recombinant PrP assessed as PrP-res formation at 100 uM after 30 mins relative to control
Set-up: scale not given: the % may be the effect or the level left
Peptide text beside a SMILES is read from it.

| Compound | Test System | Activity / % |
| --- | --- | --- |
| C[C@H](NC(=O)CNC(=O)[C@H](C)NC(=O)[C@H](C)NC(=O)[C@H](C)NC(=O)[C@H](C)NC(=O)[C@@H]1CCCN1C(=O)[C@H](C)NC(=O)[C@@H](C)N)C(N)=O | UniProt P04925 | 103 |
| C[C@H](NC(=O)[C@@H]1CCCN1C(=O)[C@@H]1CCCN1)C(N)=O (H-Pro-Pro-Ala-NH2) | UniProt P04925 | 125 |
| C[C@H](NC(=O)[C@@H]1CCCN1)C(=O)N1CCC[C@H]1C(N)=O (H-Pro-Ala-Pro-NH2) | UniProt P04925 | 59 |
| CC(C)[C@H](NC(=O)[C@H](C)NC(=O)CNC(=O)[C@@H]1CCCN1C(=O)[C@H](C)NC(=O)[C@H](C)NC(=O)[C@H](C)NC(=O)CNC(=O)[C@H](C)NC(=O)[C@@H](C)N)C(N)=O | UniProt P04925 | 54 |
| C[C@H](NC(=O)[C@@H](C)N)C(=O)N1CCC[C@H]1C(=O)NCC(N)=O | UniProt P04925 | 88 |
| C[C@H](NC(=O)CNC(=O)[C@H](C)NC(=O)[C@@H](C)N)C(=O)N[C@@H](C)C(=O)N[C@@H](C)C(=O)N1CCC[C@H]1C(=O)NCC(=O)N1CCC[C@H]1C(N)=O | UniProt P04925 | 27 |

* * *

Examples of substances with documented Activity follow.
Test System: Major prion protein (Mus musculus) (UniProt P04925)
Sequence (P04925 whole entry): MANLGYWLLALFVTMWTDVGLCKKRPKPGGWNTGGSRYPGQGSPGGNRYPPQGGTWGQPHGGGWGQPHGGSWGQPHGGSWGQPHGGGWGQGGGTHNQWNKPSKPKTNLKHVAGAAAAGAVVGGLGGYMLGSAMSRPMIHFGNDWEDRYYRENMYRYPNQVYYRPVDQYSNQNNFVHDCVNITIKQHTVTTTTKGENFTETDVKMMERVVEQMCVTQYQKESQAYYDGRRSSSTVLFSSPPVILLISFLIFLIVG
Experiment Notes: Inhibition of manganese-induced aggregation in mouse recombinant PrP assessed as PrP-res formation at 100 uM after 30 mins relative to control
Design: scale not given: the % may be the effect or the level left

| Substance | Test System | Activity [%] |
| --- | --- | --- |
| H-PAGAAAAG-NH2 | Major prion protein (Mus musculus) (UniProt P04925) | 130 |
| H-KHAAGAAAAGAVV-NH2 | Major prion protein (Mus musculus) (UniProt P04925) | 112 |
| H-GPAAPG-NH2 | Major prion protein (Mus musculus) (UniProt P04925) | 48 |
| H-GAAPPG-NH2 | Major prion protein (Mus musculus) (UniProt P04925) | 240 |
| H-GAAAPG-NH2 | Major prion protein (Mus musculus) (UniProt P04925) | 111 |
| H-PAGAAAAGA-NH2 | Major prion protein (Mus musculus) (UniProt P04925) | 71 |
| H-HAAGAAAPGAV-NH2 | Major prion protein (Mus musculus) (UniProt P04925) | 64 |
| H-KHAAGAAAPGA-NH2 | Major prion protein (Mus musculus) (UniProt P04925) | 52 |
| H-PLGSAMSR-NH2 | Major prion protein (Mus musculus) (UniProt P04925) | 11 |
| H-GAAAPP-NH2 | Major prion protein (Mus musculus) (UniProt P04925) | 148 |
| H-KHPAGAAAAGAVV-NH2 | Major prion protein (Mus musculus) (UniProt P04925) | 73 |
| H-VAGAAAAGA-NH2 | Major prion protein (Mus musculus) (UniProt P04925) | 84 |
| H-HPAGAAAAGAV-NH2 | Major prion protein (Mus musculus) (UniProt P04925) | 74 |
| H-KHAAPAAAAGAVV-NH2 | Major prion protein (Mus musculus) (UniProt P04925) | 44 |
| H-AAGAAAAG-NH2 | Major prion protein (Mus musculus) (UniProt P04925) | 23 |
| H-HAAPAAAAGAV-NH2 | Major prion protein (Mus musculus) (UniProt P04925) | 38 |
| H-KHAAGAAAPGAVV-NH2 | Major prion protein (Mus musculus) (UniProt P04925) | 86 |
| H-AAGAAAAGAVV-NH2 | Major prion protein (Mus musculus) (UniProt P04925) | 17 |
| H-PAGAAAPGA-NH2 | Major prion protein (Mus musculus) (UniProt P04925) | 56 |
| H-HAAGAAAPGA-NH2 | Major prion protein (Mus musculus) (UniProt P04925) | 28 |
| H-HAAGAAAAGA-NH2 | Major prion protein (Mus musculus) (UniProt P04925) | 59 |
| H-MLGSAPSR-NH2 | Major prion protein (Mus musculus) (UniProt P04925) | 1 |
| H-HAAGAAAAGAV-NH2 | Major prion protein (Mus musculus) (UniProt P04925) | 34 |
| H-HAAPAAAAGA-NH2 | Major prion protein (Mus musculus) (UniProt P04925) | 93 |
| H-KHAAGAAAAGA-NH2 | Major prion protein (Mus musculus) (UniProt P04925) | 102 |
| H-KHPAGAAAAGA-NH2 | Major prion protein (Mus musculus) (UniProt P04925) | 19 |
| H-GAPAPG-NH2 | Major prion protein (Mus musculus) (UniProt P04925) | 85 |
| H-MAGAAAAGA-NH2 | Major prion protein (Mus musculus) (UniProt P04925) | 104 |
| H-PAGAAAAGAVV-NH2 | Major prion protein (Mus musculus) (UniProt P04925) | 28 |
| H-PAGAAAAGAV-NH2 | Major prion protein (Mus musculus) (UniProt P04925) | 77 |
| H-HPAGAAAAGA-NH2 | Major prion protein (Mus musculus) (UniProt P04925) | 11 |
| H-AAGAAAAGA-NH2 | Major prion protein (Mus musculus) (UniProt P04925) | 76 |
| H-AAGAAAAGAV-NH2 | Major prion protein (Mus musculus) (UniProt P04925) | 57 |
| H-KHAAPAAAAGA-NH2 | Major prion protein (Mus musculus) (UniProt P04925) | 73 |

These measurements were taken from ChEMBL document CHEMBL1140991.
